Cited source: patent US20200055939A1

Recorded Kd, one value per entry.
# target.of.assay: T1, huMICA*008 alpha 3-his (human)
# T1 construct: whole construct entry: GS, alpha 3 domain (Thr204-Ser297), GNS, His8; also the construct of the FPOP experiment; also called MICA008.His; MICA*008 alpha3 construct
# T1 chain: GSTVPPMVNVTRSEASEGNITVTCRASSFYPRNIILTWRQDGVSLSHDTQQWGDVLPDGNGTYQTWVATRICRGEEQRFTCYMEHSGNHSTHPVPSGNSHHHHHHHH
# test.details: SPR, Biacore 8K, antibody on Protein A chip
Numbers only here, please. The scale is nM.

1D5 (antibody, V domains shown, mouse variable domains; also called anti-MIC 1D5) VH: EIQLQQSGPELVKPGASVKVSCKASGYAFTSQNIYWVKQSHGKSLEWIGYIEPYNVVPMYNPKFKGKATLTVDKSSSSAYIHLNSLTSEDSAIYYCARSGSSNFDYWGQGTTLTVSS VL: EIILTQSPTTMAASPGEKITITCSASSSISSHYLHWYQQKSGFSPKLLIYRTSNLASGVPARFSGSGSGTSYSLTIGTMEAEDVATYYCQQGSSLPLTFGAGTKVEIK
0.61
1D5v8 (antibody, IgG1, V domains shown, humanized variant of 1D5) VH: EVQLVQSGAEVKKPGASVKVSCKASGYAFTSQNIYWVRQAPGQGLEWIGYIEPYNVVPMYNPKFKGRVTITRDTSTSTAYLELSSLRSEDTAVYYCARSGSSNFDYWGQGTLVTVSS VL: EIVLTQSPDFQSVTPKEKVTITCSASSSISSHYLHWYQQKPDQSPKLLIKRTSNLASGVPSRFSGSGSGTDFTLTINSLEAEDAATYYCQQGSSLPLTFGQGTKVEIK
9.08

// next item, Kd requested
-- ask Please give the documented Kd of 13A9v3 (antibody, IgG1, V domains shown, humanized variant of 13A9) VH: EVQLVQSGAEVKKPGASVKVSCKASGYAFTNYLIEWVRQAPGQGLEWIGAINPGSGATNYNEKFKDRVTITADTSTSTAYLELSSLRSEDTAVYYCARFLGNYFDNWGQGTLVTVSS VL: DIQMTQSPSSLSASVGDRVTITCRASGNIHSYLAWYQQKPGKSPKLLVYYAETLADGVPSRFSGSGSGTDYTLTISSLQPEDFATYFCQQFWTTPYTFGQGTKVEIK
-- reply 3.85
